- Tested on: UACC-257 melanoma
- assay_remarks: NCI tumour cell line growth inhibition, 48 h
reported_endpoint: GI50

NC(N)=N/N=C/c1c(-c2ccc(Cl)c([N+](=O)[O-])c2)nc2sc3ccccc3n12    8.38 µM

For every item below, please supply its GI50.
1. COc1cc2cc3c(c(O)c2c(O)c1-c1c(OC)cc2cc4c(c(O)c2c1O)C(=O)O[C@H](C)C4)C(=O)O[C@H](C)C3
2. Nc1ncc(C2[C@H](CNC(=O)c3cc(Br)c[nH]3)C(CNC(=O)c3cc(Br)c[nH]3)[C@@H]2c2cnc(N)[nH]2)[nH]1 (stereo partly drawn)

["22.9 µM", "> 50 µM"]

---

- System: IGROV1 ovarian
- assay_remarks: NCI tumour cell line growth inhibition, 48 h
For each entry below, report its TGI value.

# example entries with known answers
CCSc1ncc(Br)c(Sc2nc(N)nc3nc[nH]c23)n1    30 µM
CC1CC(C)C(C(O)CC2CC(=O)N(c3ccccc3)C(=O)C2)C(O)C1 (stereo not drawn)    > 100 µM

For every item below, please supply its TGI.
1. O=C(c1ccccc1)c1cc(Cl)ccc1NCn1nnc2ccccc21
2. NC(N)=NCCCC(NC(=O)c1c2ccccc2nc2ccccc12)C(=O)O (stereo not drawn)

1. > 100 µM
2. > 100 µM

For every item below, please supply its TGI.
1. COCC1N=C(c2cc(OC)c(OC)c(OC)c2-c2cc3c(cc2[C@H](C)O)OCO3)O[C@H]1c1ccccc1 (stereo partly drawn)
2. Cc1nc2c(Br)cc(Br)cc2c(=O)n1-c1ccccc1NC1OCC(O)C(O)C1O (stereo not drawn)
3. COc1ccc(/C=C/C(C)=N/OCC(=O)Nc2ccc(Cl)cc2)cc1
4. COC(=O)[C@@H]1COC(=O)N1
5. O=C1c2ccccc2C(=O)c2sc(Nc3cc(Cl)ccc3Cl)nc21
6. CC1=CCN(c2ccccn2)OC1c1ccccc1 (stereo not drawn)
7. CC(C)=CCCC1(C)C2COC(=O)C21 (stereo not drawn)
8. COc1cccc(CCCNC(=O)Cc2ccccc2CO)c1

["> 100 µM", "> 100 µM", "51.6 µM", "> 100 µM", "24.3 µM", "> 100 µM", "> 100 µM", "> 100 µM"]

Fill in: TGI of CCc1cc2c(c3c1CCCC3=O)CC1(C2)Cc2cc(CC)c3c(c2C1)C(=O)CCC3 is ___
> 100 µM

---

For each entry below, report its TGI value.
- System: SF-268 CNS
- assay_remarks: NCI tumour cell line growth inhibition, 48 h

For every item below, please supply its TGI.
1. Cn1ccnc1C(=O)/C=C/c1ccc(C(=O)Nc2c(F)c(F)c(F)c(F)c2F)cc1
2. C#CCOC(=O)C(=[N+]=[N-])C(=O)CC(C)C
3. Clc1cc2ncn(C3CCCCO3)c2cc1Cl (stereo unspecified)

1. 4.42 µM
2. > 10 µM
3. > 100 µM

For every item below, please supply its TGI.
1. Cc1ccc2nc(C(=O)O)c(=O)[nH]c2c1
2. O=C(N/N=C/c1ccc(F)cc1)c1ccc(C(F)(F)F)nc1Nc1cccc(C(F)(F)F)c1
3. COc1cc(/C=C\c2cc(OC)c(OC)c(OC)c2)cc(NS(=O)(=O)c2ccc(Cl)cc2)c1OC
4. O=C(/C=C(\[O-])c1ccccc1)CCCCCCC(=O)/C=C(\[O-])c1ccccc1.O=C(/C=C(\[O-])c1ccccc1)CCCCCCC(=O)/C=C(\[O-])c1ccccc1.O=C(/C=C(\[O-])c1ccccc1)CCCCCCC(=O)/C=C(\[O-])c1ccccc1.[Nd+3].[Nd+3]
5. COC(=O)C(=O)C(C(=O)C(=O)Nc1ccc(C)c(C)c1)c1nc2ccc([N+](=O)[O-])cc2[nH]c1=O (stereo unspecified)

1: > 100 µM; 2: 2.34 µM; 3: > 100 µM; 4: > 50 µM; 5: > 100 µM

For every item below, please supply its TGI.
1. O=C1c2ccccc2C(=O)c2sc(Nc3cc(Cl)ccc3Cl)nc21
2. N/C(=N\C(N)=N\c1nc2ccccc2s1)c1cnccn1
3. COc1cc(/C=C2\C(=O)N(C)c3ccccc32)cc(OC)c1OC

1. 21 µM
2. > 100 µM
3. > 100 µM
